MEASUREMENT TARGET: HLA-A*0201 class I monomer of the iTopia Epitope Discovery System
METHOD SUMMARY: iTopia binding ED50
OUTCOME MEASURE: pEC50
Scale: pEC50 equals -log10([C]), with [C] in mol/L.

pEC50 reported for this binder GLPSIPVHPI [PSMA288-297] : 5.88
